// values below are reported pIC50
biological target: UniProt P06401; test: Functional assay of progesterone receptor antagonism (progesterone-induced alkaline phosphatase activity in T-47D cells); details: antagonism of progesterone (3 nM)-induced PR activity, read-out: PR-T47D IC50
Sequence (P06401 679-933 limits assumed): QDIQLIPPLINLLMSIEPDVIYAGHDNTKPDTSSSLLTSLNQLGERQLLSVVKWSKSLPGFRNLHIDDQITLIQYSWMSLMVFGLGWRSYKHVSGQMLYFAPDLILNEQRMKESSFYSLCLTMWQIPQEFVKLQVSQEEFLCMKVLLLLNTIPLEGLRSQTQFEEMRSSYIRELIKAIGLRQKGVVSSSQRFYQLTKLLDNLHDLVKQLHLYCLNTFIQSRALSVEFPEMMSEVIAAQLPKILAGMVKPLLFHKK
pIC50: −log10 of the molar value.

Look over these answered cases.
>>> value("CC1(C)OC2(CN1C(=O)Nc1ccc(F)cc1F)c1ccccc1C=Cc1ccccc12 [SOXS-1]")
"5.00 to 6.00"
>>> value("O=C1CCCC2(C(F)(F)F)OC3(CN12)c1ccccc1C=Cc1ccccc13 (stereo not shown) [FRS-11]")
"< 5.00"
>>> value("CC1(C)OC2(CN1S(C)(=O)=O)c1ccccc1C=Cc1ccccc12 [SOXS-4]")
"6.00 to 7.00"
>>> value("CCCC12CCC(=O)N1CC1(O2)c2ccccc2C=Cc2ccccc21 (stereo not shown) [FRS-9]")
"5.00 to 6.00"
>>> value("CC12CCC(=O)N1CC1(O2)c2ccccc2CCc2ccccc21 (stereo not shown) [FRS-13]")
"< 5.00"
>>> value("O=C1CCC2(c3cccs3)OC3(CN12)c1ccccc1C=Cc1ccccc13 (stereo not shown) [FRS-8]")
"5.00 to 6.00"
>>> value("CC12CCCCC(=O)N1CC1(O2)c2ccccc2C=Cc2ccccc21 (stereo not shown) [FRS-6]")
"< 5.00"
>>> value("COc1ccc(C23CCC(=O)N2CC2(O3)c3ccccc3C=Cc3ccccc32)cc1 (stereo not shown) [FRS-5]")
"< 5.00"
>>> value("O=C1CCC2(c3ccc(F)cc3)OC3(CN12)c1ccccc1C=Cc1ccccc13 (stereo not shown) [FRS-3]")
"< 5.00"
>>> value("CC(=O)N1CC2(OC1(C)C)c1ccccc1C=Cc1ccccc12 [SOXS-3]")
"5.00 to 6.00"

# pIC50 measured on UniProt P06401 for item Oc1ccc(C2=NCC3(O2)c2ccccc2C=Cc2ccccc23)cc1 [OXS-1] = < 5.00

# pIC50 measured on UniProt P06401 for item CC12CCCC(=O)N1CC1(O2)c2ccccc2C=Cc2ccccc21 (stereo not shown) [FRS-4] = 5.00 to 6.00
